# measurement-notes: qHTS of pediatric cancer cell lines to identify multiple opportunities for drug repurposing: Confirmatory screen for NB-EBc1 cells (AID 1347115);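 also: cells exposed to compound for 48 h before the viability read; nearly all actives have a fitted effect of over 45% in size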; also: potency is read from the fitted curve at half-maximal effect
# measurement-setup: NB-EBc1 neuroblastoma cells, viability (cytotoxicity); series mostly up to 45.9 µM
Inconclusive results are not listed. Active and inactive are the calls of the source. Calls follow the shape of the dose curve; as a rule, active = well fitted cell-killing curve with a large enough effect; inconclusive = small, poorly fitted or top-dose-only effect, or effect the other way; inactive = no such curve, though single readings can be large or run the other way.

molecule	Potency
O=C(N[C@H]1CN2CCC1CC2)c1ccc(Cl)cc1	inactive
CC=C(C)C(=O)O[C@H]1C(C)=C2[C@@H]3OC(=O)[C@@](C)(O)[C@@]3(O)[C@@H](OC(=O)CCC)C[C@](C)(OC(C)=O)[C@@H]2[C@@H]1OC(=O)CCCCCCC	inactive
C[C@H]1CCCC=CC2C[C@H](O)C[C@@H]2[C@H](O)C=CC(=O)O1 (some centres not stated)	0.117 µM (active)
O=C(O)CCCOc1ccc(Cl)cc1Cl	19.4 µM (active)
CC[C@H]1C=CC=CC[C@@H](C)[C@H](O)[C@@](C)(O)C(=O)[C@@H](C)[C@H](O)[C@@H](C)C(=O)[C@@H](C)[C@H](O)[C@@H](C)C=CC(=O)O[C@@H]2[C@@H](C)[C@H](CC1)O[C@]1(CC[C@H](C)[C@H](C[C@@H](C)O)O1)[C@H]2C	0.208 µM (active)
CCC(=O)OC1CCC2C3CCC4=CC(=O)CC[C@@]4(C)C3CC[C@]12C (some centres not stated)	inactive
Cc1ccccc1-n1c(Cn2cnc3c(N)ncnc32)nc2cccc(C)c2c1=O	inactive
CCCN1CCO[C@@H]2c3cc(O)ccc3OC[C@@H]21	inactive
CC(C)(O)C=CC(=O)[C@](C)(O)[C@H]1[C@H](O)C[C@]2(C)[C@@H]3CC=C4[C@@H](C=C(O)C(=O)C4(C)C)[C@]3(C)C(=O)C[C@@]12C	3.29 µM (active)
CC[C@@]1(O)C(=O)OCc2c1cc1n(c2=O)Cc2cc3ccccc3nc2-1	0.0657 µM (active)
O=c1[nH]c2ccc(Cl)cc2c(N[C@@H]2CN3CCC2CC3)c1-c1nc2ccccc2[nH]1	0.522 µM (active)
COc1cc([C@@H]2c3cc4c(cc3[C@@H](O)C3COC(=O)C32)OCO4)cc(OC)c1O (some centres not stated)	3.69 µM (active)
O=C(O)COc1nc(Cl)c(Cl)cc1Cl	inactive
CS(=O)(=O)c1ccc(C(=O)C2C(=O)CCCC2=O)c([N+](=O)[O-])c1	inactive
CC(C)N[C@@H]1CCn2c(=O)[nH]c3cccc(c32)[C@@H]1O	inactive
C[C@]12Cc3cn[nH]c3C[C@@H]1CC[C@@H]1[C@H]2CC[C@@]2(C)[C@H]1CC[C@]2(C)O	inactive
CC(C)(C)C(O)C(Oc1ccc(Cl)cc1)n1cncn1 (configuration not stated)	inactive

Sourced from PubChem BioAssay (NCATS)
